Provenance of the data: patent US11584714B2

Some compounds, each annotated with its measured Ki.
biological target: mMASP-2 (Mus musculus (Mouse), UniProt Q91WP0); assay: Enzymatic inhibition of mMASP-2; assay type: biochemical; conditions: read-out: mMASP-2 Ki
Sequence (Q91WP0 20-685): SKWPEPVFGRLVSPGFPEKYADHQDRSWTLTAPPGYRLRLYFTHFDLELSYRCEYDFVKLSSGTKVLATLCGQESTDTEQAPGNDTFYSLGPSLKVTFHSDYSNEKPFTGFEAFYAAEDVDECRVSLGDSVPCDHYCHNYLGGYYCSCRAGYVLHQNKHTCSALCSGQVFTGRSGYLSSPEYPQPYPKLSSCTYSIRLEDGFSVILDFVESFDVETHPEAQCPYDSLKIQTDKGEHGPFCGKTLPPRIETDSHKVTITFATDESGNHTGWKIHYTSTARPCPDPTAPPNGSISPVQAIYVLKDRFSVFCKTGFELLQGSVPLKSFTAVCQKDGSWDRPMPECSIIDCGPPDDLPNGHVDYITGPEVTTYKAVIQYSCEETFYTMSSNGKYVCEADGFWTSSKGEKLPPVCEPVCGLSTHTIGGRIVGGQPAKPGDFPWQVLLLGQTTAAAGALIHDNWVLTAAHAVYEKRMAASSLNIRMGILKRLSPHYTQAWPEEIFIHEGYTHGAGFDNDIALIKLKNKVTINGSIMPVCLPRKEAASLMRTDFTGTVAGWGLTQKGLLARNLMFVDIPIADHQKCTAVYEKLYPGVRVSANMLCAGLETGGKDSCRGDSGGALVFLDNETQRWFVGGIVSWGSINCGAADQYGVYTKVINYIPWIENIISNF
Structures can show the parent of a compound that is named as a salt.

Examples from the recorded data:
[
  {
    "compound": "C[C@H](NC(=O)[C@H]1C[C@H](c2ccccc2)CN1)C(=O)NCc1ccc2c(N)n[nH]c2c1 [compound 1425, Trifluoroacetate salt]",
    "measurementTarget": "mMASP-2 (Mus musculus (Mouse), UniProt Q91WP0)",
    "measurementKind": "Ki",
    "valueObserved": "500 to 2500 nM"
  },
  {
    "compound": "C[C@H](NC(=O)[C@H]1C[C@@H](c2ccccc2)CCN1)C(=O)NCc1ccc(C(=N)N)cc1 [compound 1065]",
    "measurementTarget": "mMASP-2 (Mus musculus (Mouse), UniProt Q91WP0)",
    "measurementKind": "Ki",
    "valueObserved": "< 500 nM"
  },
  {
    "compound": "Cc1ccc([C@H]2CCN[C@@H](C(=O)N[C@@H](C)C(=O)NCc3ccc(C(=N)N)cc3)C2)cc1",
    "measurementTarget": "mMASP-2 (Mus musculus (Mouse), UniProt Q91WP0)",
    "measurementKind": "Ki",
    "valueObserved": "< 500 nM"
  },
  {
    "compound": "C[C@H](NC(=O)[C@H](N)CCc1ccccc1)C(=O)NCc1ccc(C(=N)N)nc1",
    "measurementTarget": "mMASP-2 (Mus musculus (Mouse), UniProt Q91WP0)",
    "measurementKind": "Ki",
    "valueObserved": "< 500 nM"
  },
  {
    "compound": "C[C@H](NC(=O)[C@H](N)CCc1ccccc1)C(=O)NCc1cnc(N)c(F)c1",
    "measurementTarget": "mMASP-2 (Mus musculus (Mouse), UniProt Q91WP0)",
    "measurementKind": "Ki",
    "valueObserved": "> 25000 nM"
  },
  {
    "compound": "C[C@H](NC(=O)[C@H]1C[C@@H](c2ccccc2)CCN1)C(=O)NCc1cc(Cl)ccc1-n1cnnn1 [compound 1426, Trifluoroacetate]",
    "measurementTarget": "mMASP-2 (Mus musculus (Mouse), UniProt Q91WP0)",
    "measurementKind": "Ki",
    "valueObserved": "500 to 2500 nM"
  }
]

Request: State the recorded Ki for this entry: Cc1nc(N)ccc1CNC(=O)[C@H](C)NC(=O)[C@H]1C[C@@H](c2ccccc2)CCN1CCC(=O)O [compound 1411, Trifluoroacetate salt]
Response: < 500 nM
